Target: T1, recombinant SARS-CoV-2 Spike RBD domain, EG.5 variant (SARS-CoV-2)
T1 construct: also called RBD EG.5.1 variant
Assay: competition ELISA, blocking of RBD binding to ACE2 ectodomain
Please note: met applies when Blocking % is 90% or greater, and not met applies otherwise.

1) SPK002M A3 antibody (antibody, human IgG1, kappa, V domains shown) VH: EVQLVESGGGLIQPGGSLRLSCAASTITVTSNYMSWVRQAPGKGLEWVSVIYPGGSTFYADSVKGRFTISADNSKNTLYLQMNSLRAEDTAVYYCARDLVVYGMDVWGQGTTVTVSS VL: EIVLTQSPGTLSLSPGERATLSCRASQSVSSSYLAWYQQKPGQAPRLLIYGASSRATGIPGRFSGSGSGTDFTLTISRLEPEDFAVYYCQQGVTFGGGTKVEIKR; not met
2) SPK002M B1 antibody (antibody, human IgG1, kappa, V domains shown) VH: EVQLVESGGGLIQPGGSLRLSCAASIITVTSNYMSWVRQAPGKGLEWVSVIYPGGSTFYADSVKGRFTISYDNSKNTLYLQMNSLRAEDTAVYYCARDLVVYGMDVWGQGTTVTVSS VL: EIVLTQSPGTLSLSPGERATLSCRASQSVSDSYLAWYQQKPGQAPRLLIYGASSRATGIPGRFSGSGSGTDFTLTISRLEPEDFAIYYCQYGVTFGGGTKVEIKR; met
3) SPK002M A4 antibody (antibody, human IgG1, kappa, V domains shown) VH: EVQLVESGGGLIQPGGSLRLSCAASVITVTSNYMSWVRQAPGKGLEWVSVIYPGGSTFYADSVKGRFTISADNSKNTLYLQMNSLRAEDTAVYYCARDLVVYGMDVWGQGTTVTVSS VL: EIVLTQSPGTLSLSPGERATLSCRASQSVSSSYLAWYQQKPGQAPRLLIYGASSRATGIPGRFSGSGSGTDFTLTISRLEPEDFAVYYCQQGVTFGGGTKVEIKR; not met

(Q) Would you say SPK002M C3 antibody (antibody, human IgG1, kappa, V domains shown) VH: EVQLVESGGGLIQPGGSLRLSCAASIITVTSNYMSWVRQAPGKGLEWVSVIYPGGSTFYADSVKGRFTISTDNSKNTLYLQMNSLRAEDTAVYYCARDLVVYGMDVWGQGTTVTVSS VL: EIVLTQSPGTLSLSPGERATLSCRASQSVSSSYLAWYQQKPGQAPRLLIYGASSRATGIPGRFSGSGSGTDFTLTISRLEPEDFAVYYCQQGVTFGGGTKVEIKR shows Blocking % at minimum 90%?
(A) not met

(Q) Would you say SPK002M C1 antibody (antibody, human IgG1, kappa, V domains shown) VH: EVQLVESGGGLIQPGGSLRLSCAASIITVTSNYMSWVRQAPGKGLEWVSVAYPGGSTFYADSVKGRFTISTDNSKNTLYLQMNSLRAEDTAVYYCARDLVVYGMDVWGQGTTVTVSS VL: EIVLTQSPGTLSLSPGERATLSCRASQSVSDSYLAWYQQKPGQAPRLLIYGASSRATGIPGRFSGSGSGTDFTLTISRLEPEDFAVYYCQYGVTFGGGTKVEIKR shows Blocking % at minimum 90%?
(A) met

(Q) Would you say SPK002M A5 antibody (antibody, human IgG1, kappa, V domains shown) VH: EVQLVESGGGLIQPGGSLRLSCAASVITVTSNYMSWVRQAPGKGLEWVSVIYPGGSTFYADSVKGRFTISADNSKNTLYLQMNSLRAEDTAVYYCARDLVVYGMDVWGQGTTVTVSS VL: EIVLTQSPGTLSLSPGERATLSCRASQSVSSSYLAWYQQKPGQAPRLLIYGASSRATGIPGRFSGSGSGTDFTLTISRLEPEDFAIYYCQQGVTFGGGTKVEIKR shows Blocking % at minimum 90%?
(A) not met

(Q) Would you say SPK002M B2 antibody (antibody, human IgG1, kappa, V domains shown) VH: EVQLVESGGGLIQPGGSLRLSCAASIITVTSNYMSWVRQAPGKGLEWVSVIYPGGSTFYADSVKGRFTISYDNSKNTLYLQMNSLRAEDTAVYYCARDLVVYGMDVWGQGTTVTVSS VL: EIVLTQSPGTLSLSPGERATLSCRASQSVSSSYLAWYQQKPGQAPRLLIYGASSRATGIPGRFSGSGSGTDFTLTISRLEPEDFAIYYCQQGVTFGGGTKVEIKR shows Blocking % at minimum 90%?
(A) not met

These measurements were taken from patent US12281155.
